- System: Glycine max
- assay_notes: Inhibition of soybean lipoxygenase assessed as inhibition of sodium linolate conversion to 13-hydroperoxylinoleic acid after 4 mins by spectrophotometry
readout_label: inhibition

Recorded inhibition, per entry:
sample_smiles=O=C1N/C(=N\c2nccs2)S/C1=C\c1ccc(F)cc1 endpoint_result=35%
sample_smiles=O=C1N/C(=N\c2nccs2)S/C1=C\c1cccc(F)c1 endpoint_result=72%
sample_smiles=O=C1N/C(=N\c2nccs2)S/C1=C\c1cccc(Cl)c1Cl endpoint_result=41%
sample_smiles=O=C1N/C(=N\c2nccs2)S/C1=C\c1cccc(O)c1 endpoint_result=35%
sample_smiles=O=C1N/C(=N\c2nccs2)S/C1=C\c1cccc(Br)c1 endpoint_result=34%

Enquiry: Report inhibition for Cc1ccc(/C=C2\S/C(=N/c3nccs3)NC2=O)cc1 please.
Return: 67%

Enquiry: For the compound O=C1N/C(=N\c2nccs2)S/C1=C\c1c(Cl)cccc1Cl , what inhibition is on record?
Return: 43%

Enquiry: # inhibition lookup, item O=C1N/C(=N\c2nccs2)S/C1=C\c1ccc(Cl)cc1Cl
Return: 54%
